Hello, the source for this data is patent US12139499B2, in case you need it.

# Test system: Endogenous Huntingtin Protein
# Assay Name: Endogenous Huntingtin Protein Assay (ELISA-based MSD electrochemiluminescence)
# Format: cell-based
# Details: Table 1
pIC50: −log10 of the molar value.
Property: pIC50

[[record]]
compound = "Cc1cn2nc(-c3cc(F)c4nc(C5CCN[C@H](C)C5)sc4c3)ccc2n1 (stereo partly drawn)"
recorded_measurement = "≥ 7.00"

[[record]]
compound = "Oc1cc(-c2cn[nH]c2)ccc1-c1cc2sc(NC3CCNC3)nc2nn1 (stereo not drawn)"
recorded_measurement = "6.30 to 7.00"

[[record]]
compound = "Cn1cc2cc(-c3cc(Cl)c4nc(C5=CCNCC5)sc4c3)cc(C#N)c2n1"
recorded_measurement = "5.52 to 6.00"

[[record]]
compound = "Cc1cn2cc(-c3ccc4nc(N(C)C5CC6(C)CCC(C)(C5)N6)sc4n3)cc(C#N)c2n1 (stereo not drawn)"
recorded_measurement = "≥ 7.00"

[[record]]
compound = "Cc1cn2cc(-c3cc4sc(N(C)C5CCNCC5)nc4cn3)cc(C#N)c2n1"
recorded_measurement = "≥ 7.00"

[[record]]
compound = "Cc1cn2nc(-c3cc(F)c4nc(N(C)C5CC6CCC(C5)N6)sc4c3)cc(C(N)=O)c2n1 (stereo not drawn)"
recorded_measurement = "≥ 7.00"

[[record]]
compound = "CCCN1CCC(N(C)c2nc3nnc(-c4ccc(-c5cn[nH]c5)cc4O)cc3s2)CC1"
recorded_measurement = "5.52 to 6.00"

[[record]]
compound = "Cc1cn2cc(-c3ccc4nc(C5CCNCC5)sc4c3)cnc2n1"
recorded_measurement = "5.52 to 6.00"

[[record]]
compound = "Cc1cn2nc(-c3cc(F)c4nc(N(C)C5CC6CCC(C5)N6)sc4c3)ccc2n1 (stereo not drawn)"
recorded_measurement = "≥ 7.00"

[[record]]
compound = "Cc1cn2cc(-c3cc(F)c4nc(N(C)C5CC(C)(C)NC(C)(C)C5)sc4c3)cc(C)c2n1"
recorded_measurement = "≥ 7.00"

[[record]]
compound = "Cc1cc(-c2ccc3nc(N(C)C4CCNC(C)C4)sc3c2)cc2cn(C)nc12 (stereo not drawn)"
recorded_measurement = "≥ 7.00"

[[record]]
compound = "Cc1cn2cc(-c3ccc4nc(N(C)C5CC6CCC(C5)N6)sc4n3)cc(C#N)c2n1 (stereo not drawn)"
recorded_measurement = "≥ 7.00"


----------
# Tested on: Endogenous Huntingtin Protein
# Assay Name: Endogenous Huntingtin Protein Assay (ELISA-based MSD electrochemiluminescence)
# Format: cell-based
# Details: Table 1
Property: IC50

[[record]]
compound = "CN(c1nc2ncc(-c3ccc(-c4cn[nH]c4)cc3O)nc2s1)C1CCNCC1"
recorded_measurement = "≤ 100 nM"

[[record]]
compound = "CN1C[C@H](Nc2nc3nnc(-c4ccc(-c5cn[nH]c5)cc4O)cc3s2)[C@@H](F)C1"
recorded_measurement = "100 to 500 nM"

[[record]]
compound = "CN(c1nc2ccc(-c3ccc4nn(C)cc4c3)cc2s1)C1CCNC1 (centres unmarked)"
recorded_measurement = "1000 to 3000 nM"

[[record]]
compound = "Cc1cn2nc(-c3cc(F)c4nc(C5CCNCC5)sc4c3)cc(Oc3ccccc3)c2n1"
recorded_measurement = "≤ 100 nM"

[[record]]
compound = "CC1C=C(c2nc3ccc(-c4ccc5nn(C)cc5c4)cc3s2)CCN1 (centres unmarked)"
recorded_measurement = "1000 to 3000 nM"

[[record]]
compound = "Cc1cn2nc(-c3cc(F)c4nc(N(C)C5CNC5)sc4c3)cc(C)c2n1"
recorded_measurement = "100 to 500 nM"

[[record]]
compound = "CN(c1nc2nnc(-c3ccc(-c4cn[nH]c4)cc3O)cc2s1)C1CC2(CNC2)C1"
recorded_measurement = "100 to 500 nM"

[[record]]
compound = "Cn1cc2cc(-c3ncc4nc(C5CCNCC5)sc4n3)cc(C#N)c2n1"
recorded_measurement = "100 to 500 nM"

[[record]]
compound = "CN(c1nc2cnc(-c3cc(F)c4nn(C)cc4c3)cc2s1)C1CC2CCCC(C1)N2 (centres unmarked)"
recorded_measurement = "≤ 100 nM"

[[record]]
compound = "Cn1cc2cc(-c3ccc4nc(C5CCNCC5)sc4c3)cc(F)c2n1"
recorded_measurement = "≤ 100 nM"

[[record]]
compound = "Cn1cc2cc(-c3cc(C#N)c4nc(C5=CCNCC5)sc4c3)cc(C#N)c2n1"
recorded_measurement = "1000 to 3000 nM"


----------
# System: Endogenous Huntingtin Protein
# Assay Name: Endogenous Huntingtin Protein Assay (ELISA-based MSD electrochemiluminescence)
# Assay type: cell-based
# Details: Table 1
pIC50: −log10 of the molar value.
Property: pIC50

[[record]]
molecule = "CC1CC(c2nc3ccc(-c4ccc5nn(C)cc5c4)cc3s2)CCN1 (stereo not drawn) [Compound 58]"
recorded_measurement = "6.00 to 6.30"

[[record]]
molecule = "CN1CC2(C1)CN(c1nc3nnc(-c4ccc(-c5c[nH]nc5F)cc4O)cc3s1)C2 [Compound 385]"
recorded_measurement = "≥ 7.00"

[[record]]
molecule = "Cc1cn2cc(-c3cc4sc(N(C)[C@@H]5CC(C)(C)NC(C)(C)[C@@H]5F)nc4cn3)cc(C#N)c2n1 [Compound 325]"
recorded_measurement = "≥ 7.00"

[[record]]
molecule = "Cc1cn2cc(-c3cc4sc(N(C)C5CC6CCCC(C5)N6C)nc4cn3)cc(C#N)c2n1 (stereo not drawn) [Compound 270]"
recorded_measurement = "≥ 7.00"

[[record]]
molecule = "Cc1cn2nc(-c3cc(F)c4nc(C5CCNCC5)sc4c3)ccc2n1 [Compound 45]"
recorded_measurement = "≥ 7.00"

[[record]]
molecule = "Cc1cn2cc(-c3cc4sc(N(C)C5CC6(C)CCC(C)(C5)N6)nc4cn3)cc(C#N)c2n1 (stereo not drawn) [Compound 285]"
recorded_measurement = "≥ 7.00"


----------
# Test system: Endogenous Huntingtin Protein
# Assay Name: Endogenous Huntingtin Protein Assay (ELISA-based MSD electrochemiluminescence)
# Format: cell-based
# Details: Table 1
pIC50: −log10 of the molar value.
Measured pIC50 of individual entries
Property: pIC50

[[record]]
compound = "Cn1cc2cc(-c3ccc4nc(N5CCNCC5)sc4c3)ccc2n1"
test_system = "Endogenous Huntingtin Protein"
property = "pIC50"
recorded_measurement = "5.52 to 6.00"

[[record]]
compound = "Cc1cn2nc(-c3cc(F)c4nc(C5CCNCC5)sc4c3)cc(C#N)c2n1"
test_system = "Endogenous Huntingtin Protein"
property = "pIC50"
recorded_measurement = "≥ 7.00"

[[record]]
compound = "CC1CC(N(C)c2nc3cnc(-c4cc(C#N)c5nn(C)cc5c4)cc3s2)CCN1C (stereo not drawn)"
test_system = "Endogenous Huntingtin Protein"
property = "pIC50"
recorded_measurement = "6.30 to 7.00"

[[record]]
compound = "Cc1cn2cc(-c3ccc4nc(N(C)C5CC(C)(C)NC(C)(C)C5)sc4c3)ccc2n1"
test_system = "Endogenous Huntingtin Protein"
property = "pIC50"
recorded_measurement = "6.30 to 7.00"

[[record]]
compound = "Cc1nc2c(C#N)cc(-c3ncc4nc(N(C)C5CC(C)(C)NC(C)(C)C5)sc4n3)cc2o1"
test_system = "Endogenous Huntingtin Protein"
property = "pIC50"
recorded_measurement = "≥ 7.00"

[[record]]
compound = "Cc1cc2nc(-c3cc(F)c4nc(C5CCNCC5)sc4c3)ccn2n1"
test_system = "Endogenous Huntingtin Protein"
property = "pIC50"
recorded_measurement = "≥ 7.00"

[[record]]
compound = "Cc1cn2cc(-c3cc4sc(OC5CCNCC5)nc4cn3)cc(C#N)c2n1"
test_system = "Endogenous Huntingtin Protein"
property = "pIC50"
recorded_measurement = "6.30 to 7.00"

[[record]]
compound = "Cc1cn2cc(-c3cc(F)c4nc(C5CCNCC5)sc4c3)nc2c(C)n1"
test_system = "Endogenous Huntingtin Protein"
property = "pIC50"
recorded_measurement = "≥ 7.00"

[[record]]
compound = "COc1cc(-c2cc(F)c3nc(N(C)C4CCNCC4)sc3c2)nn2cc(C)nc12"
test_system = "Endogenous Huntingtin Protein"
property = "pIC50"
recorded_measurement = "≥ 7.00"

[[record]]
compound = "Cc1cn2cc(-c3cnc4nc(N5CCNCC5)sc4n3)cc(C#N)c2n1"
test_system = "Endogenous Huntingtin Protein"
property = "pIC50"
recorded_measurement = "5.52 to 6.00"

[[record]]
compound = "Cc1cn2nc(-c3ccc4nc(N(C)C5CC(C)(C)NC(C)(C)C5)sc4c3)ccc2n1"
test_system = "Endogenous Huntingtin Protein"
property = "pIC50"
recorded_measurement = "≥ 7.00"

[[record]]
compound = "Cc1cn2cc(-c3cc(F)c4nc(OC5CCNCC5)sc4c3)cc(C)c2n1"
test_system = "Endogenous Huntingtin Protein"
property = "pIC50"
recorded_measurement = "≥ 7.00"

[[record]]
compound = "CN(c1nc2nnc(-c3ccc(-c4cn[nH]c4)cc3O)cc2s1)[C@@H]1CCCNC1"
test_system = "Endogenous Huntingtin Protein"
property = "pIC50"
recorded_measurement = "6.30 to 7.00"

[[record]]
compound = "Cn1cc2cc(-c3cc(F)c4nc(C5CCNCC5)sc4c3)cc(F)c2n1"
test_system = "Endogenous Huntingtin Protein"
property = "pIC50"
recorded_measurement = "≥ 7.00"

[[record]]
compound = "CN(c1nc2cnc(-c3ccc4nn(C)cc4c3)cc2s1)C1CC(C)(C)NC(C)(C)C1"
test_system = "Endogenous Huntingtin Protein"
property = "pIC50"
recorded_measurement = "≥ 7.00"

[[record]]
compound = "Cc1cc(-c2ncc3nc(N(C)C4CC(C)(C)NC(C)(C)C4)sc3n2)cc2cn(C)nc12"
test_system = "Endogenous Huntingtin Protein"
property = "pIC50"
recorded_measurement = "6.30 to 7.00"

[[record]]
compound = "CN(c1nc2cnc(-c3cc(F)c4nn(C)cc4c3)cc2s1)[C@@H]1C[C@H]2CC[C@@H](C1)N2C"
test_system = "Endogenous Huntingtin Protein"
property = "pIC50"
recorded_measurement = "6.30 to 7.00"

[[record]]
compound = "CN(c1nc2ncc(-c3ccc4nn(C)cc4c3)cc2s1)C1CC(C)(C)NC(C)(C)C1"
test_system = "Endogenous Huntingtin Protein"
property = "pIC50"
recorded_measurement = "6.00 to 6.30"

